Origin of the recorded values: patent US9809598B2

Reported values of IC50 for individual entries
molecular target: TNKS1 (Homo sapiens); construct: GST-tagged Tnks-1 (1023-1327 aa, prepared in-house); made in house; assay: TNKS1 activity ELISA (autoparsylation assay); format: biochemical; conditions: GST-tagged Tnks-1 (1023-1327 aa)
Unit nM implied. Number only.

                                   molecule  unit_tag  recorded_value
0  CC(C)n1cc(C(=O)C2CCN(C(=O)CCCc3cn4c(F)ccc4c(=O)[nH]3)CC2)cn1        nM            0.39
1  COc1ccc(C(=O)C2CCN(C(=O)CCCc3nncc4ccccc34)CC2)cc1        nM             2.8
2  Cc1cc2c(=O)[nH]c(CCCC(=O)N3CCC(c4nnc(-c5ccccc5)o4)CC3)nn2c1        nM              20

State, in one line, measured IC50 of COc1ccc(C(=O)C2CCN(C(=O)CCCc3cn4nc(C)cc4c(=O)[nH]3)CC2)cn1
0.36

----------
Reported values of IC50 for individual entries
Target: TNKS1 (Homo sapiens, UniProt O95271)
Construct: GST-tagged Tnks-1 (1023-1327 aa, prepared in-house); made in house
Sequence (O95271 1023-1327): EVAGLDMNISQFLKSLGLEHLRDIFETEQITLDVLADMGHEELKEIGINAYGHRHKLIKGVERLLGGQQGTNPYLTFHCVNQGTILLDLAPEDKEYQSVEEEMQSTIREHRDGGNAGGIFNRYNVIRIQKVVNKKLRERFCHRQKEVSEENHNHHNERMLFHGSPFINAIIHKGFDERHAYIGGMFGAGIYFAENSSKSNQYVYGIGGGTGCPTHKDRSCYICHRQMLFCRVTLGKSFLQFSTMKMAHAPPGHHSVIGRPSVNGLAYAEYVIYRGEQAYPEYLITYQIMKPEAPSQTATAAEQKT
Experiment: TNKS1 activity ELISA (autoparsylation assay)
Type: biochemical
Conditions: GST-tagged Tnks-1 (1023-1327 aa)
Protocol: Description of the TNKS1 and TNKS2 ELISA Assay Biochemical Activity Testing of TNKS 1 and 2: Activity ELISA (Autoparsylation Assay) For analysis of autoparsylation activity of TNKS 1 and 2 an activity ELISA iss performed: In the first step GST tagged TNKS is captured on a Glutathione coated plate. Then the activity assay with biotinylated NAD is performed in the absence/presence of the compounds. […] The amount of biotinylated resp. autoparsylated TNKS is detected with a luminescence substrate for HRP. […]
Unit nM implied. Number only.

Here's what some known entries look like.
>>> df
                                   molecule  recorded_value
0  Cn1ncc2c(=O)[nH]c(CCCC(=O)N3CCC(c4cnc(N)c(C#N)c4)CC3)nc21             1.6
1  COc1ccc(C(=O)C2CCN(C(=O)CCCc3cn4cccc4c(=O)[nH]3)CC2)cc1C            0.14
2  COc1ccc(C(=O)C2CCN(C(=O)CCCc3nc4c(C)scc4c(=O)[nH]3)CC2)cc1            0.54
3  O=C(CCCc1nn2cccc2c(=O)[nH]1)N1CCC(c2nnc(-c3ccccc3)o2)CC1              18
4  O=C(c1ccc(F)cc1)C1CCN(C(=O)CCCc2nc3c(c(=O)[nH]2)COCC3)CC1              12
5  Nc1ncc(C2CCN(C(=O)CCCc3nn4cccc4c(=O)[nH]3)CC2)cc1-c1ncccn1            0.23
6  O=C(c1ccc(F)cc1)C1CCN(C(=O)CCCc2noc3ccccc23)CC1             730

Read the next record carefully.
State, in one line, measured IC50 of O=C(CCCc1nn2cc(F)cc2c(=O)[nH]1)N1CCC(c2nnc(-c3ccccc3)o2)CC1
15

----------
target: TNKS1 (Homo sapiens, UniProt O95271); construct: GST-tagged Tnks-1 (1023-1327 aa, prepared in-house); made in house; assay: TNKS1 activity ELISA (autoparsylation assay); format: biochemical; conditions: GST-tagged Tnks-1 (1023-1327 aa)
OBSERVABLE: IC50 (nM)
Unit nM implied. Number only.

Here's what some known entries look like.
>>> df
                                   molecule  observable  recorded_value
0  Cc1ncc2c(=O)[nH]c(CCCC(=O)N3CCC(C(=O)c4cnn(C)c4)CC3)cn12        IC50            0.43
1  Cc1ccc2c(=O)[nH]c(CCCC(=O)N3CCC(Oc4ccc(C#N)cc4)CC3)cn12        IC50             2.6
2  Cc1cc2c(=O)[nH]c(CCCC(=O)N3CCC(Oc4ccc(C#N)cc4)CC3)nn2c1        IC50              21

Read the next record carefully.
State, in one line, measured IC50 of COc1ccc(C(=O)C2CCN(C(=O)CCCc3cn4nc(C)cc4c(=O)[nH]3)CC2)cc1
0.13

----------
Reported values of IC50 for individual entries
Target: PARP-1 (Homo sapiens, UniProt P09874)
Construct: purchased Enzo Life Sciences GmbH, Lörrach, Germany
Sequence (P09874 whole entry): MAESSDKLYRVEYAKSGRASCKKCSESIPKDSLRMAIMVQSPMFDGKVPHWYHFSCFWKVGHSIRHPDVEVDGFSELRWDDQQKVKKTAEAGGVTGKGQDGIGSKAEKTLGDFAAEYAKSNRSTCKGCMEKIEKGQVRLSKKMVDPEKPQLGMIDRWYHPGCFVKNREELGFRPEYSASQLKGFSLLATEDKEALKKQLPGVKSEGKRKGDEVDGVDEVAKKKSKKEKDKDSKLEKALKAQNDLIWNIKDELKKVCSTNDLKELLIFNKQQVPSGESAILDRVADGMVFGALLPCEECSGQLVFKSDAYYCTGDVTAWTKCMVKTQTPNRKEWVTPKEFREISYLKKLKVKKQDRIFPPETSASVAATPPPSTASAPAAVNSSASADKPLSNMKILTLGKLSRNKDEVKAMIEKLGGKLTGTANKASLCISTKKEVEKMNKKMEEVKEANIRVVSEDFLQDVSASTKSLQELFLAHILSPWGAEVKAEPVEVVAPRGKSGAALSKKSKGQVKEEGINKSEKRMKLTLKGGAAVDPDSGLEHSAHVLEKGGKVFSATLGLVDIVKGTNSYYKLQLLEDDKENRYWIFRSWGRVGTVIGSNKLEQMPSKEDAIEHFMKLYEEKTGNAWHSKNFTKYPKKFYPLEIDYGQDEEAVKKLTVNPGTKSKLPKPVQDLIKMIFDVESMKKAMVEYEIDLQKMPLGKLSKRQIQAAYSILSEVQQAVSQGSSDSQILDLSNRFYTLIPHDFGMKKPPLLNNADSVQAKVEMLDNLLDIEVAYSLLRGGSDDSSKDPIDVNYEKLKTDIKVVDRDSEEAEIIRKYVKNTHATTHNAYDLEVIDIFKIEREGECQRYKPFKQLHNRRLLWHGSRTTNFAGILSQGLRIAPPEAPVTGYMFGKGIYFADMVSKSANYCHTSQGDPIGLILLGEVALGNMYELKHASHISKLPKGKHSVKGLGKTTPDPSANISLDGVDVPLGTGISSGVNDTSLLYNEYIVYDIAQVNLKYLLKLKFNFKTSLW
Assay: PARP-1 autoparsylation assay (HTRF)
Assay type: biochemical
Details: His-tagged Parp-1, autoparsylation HTRF
Excerpt: Description of the PARP1 Assay Biochemical Activity Testing of PARP-1: Autoparsylation Assay The autoparsylation assay is run in two steps: the enzymatic reaction in which His-tagged Parp-1 transfers biotinylated ADP-ribose/ADP-ribose to itself from biotinylated NAD/NAD as co-substrate and the detection reaction where a time resolved FRET between cryptate labelled anti-His antibody bound to the His tag of the enzyme and Xlent® labelled-streptavidin bound the biotin-parsylation residue is analysed. […]
Unit nM implied. Number only.

Here's what some known entries look like.
>>> print(df.to_string())
                                   molecule                          tested_system  observable  recorded_value
0  Cc1csc2c(=O)[nH]c(CCCC(=O)N3CCC(c4cnc(N)c(C#N)c4)CC3)nc12  PARP-1 (Homo sapiens, UniProt P09874)        IC50             360
1  Cc1ccc2c(=O)[nH]c(CCCC(=O)N3CCC(C(=O)c4cnn(C(C)C)c4)CC3)nn12  PARP-1 (Homo sapiens, UniProt P09874)        IC50             840
2  Cn1cc(C(=O)C2CCN(C(=O)CCCc3nc4c(c(=O)[nH]3)CCCC4)CC2)cn1  PARP-1 (Homo sapiens, UniProt P09874)        IC50            1800

Report value only: IC50, PARP-1 (Homo sapiens, UniProt P09874), COc1ccc(C(=O)C2CCN(C(=O)CCCc3nn4cc(C)cc4c(=O)[nH]3)CC2)cc1F
2100

----------
Reported values of IC50 for individual entries
molecular target: PARP-1 (Homo sapiens, UniProt P09874); construct: purchased Enzo Life Sciences GmbH, Lörrach, Germany; experiment: PARP-1 autoparsylation assay (HTRF); type: biochemical; details: His-tagged Parp-1, autoparsylation HTRF
Unit µM implied. Number only.

Here's what some known entries look like.
                                   compound  recorded_value
0  O=C(CCCc1cn2cccc2c(=O)[nH]1)N1CCC(c2nnc(-c3ccccc3)o2)CC1             3.7
1  COc1ccc(C(=O)C2CCN(C(=O)CCCc3nc4c(c(=O)[nH]3)COCC4)CC2)cc1             1.9
2  Cc1ccc2c(=O)[nH]c(CCCC(=O)N3CCC(C(=O)c4cnn(C)c4)CC3)nn12            0.86

State, in one line, measured IC50 of Cc1ccc2c(=O)[nH]c(CCCC(=O)N3CCC(C(=O)c4cnn(C(C)C)c4)CC3)cn12
14

State, in one line, measured IC50 of CC(C)(O)c1ccc(C(=O)C2CCN(C(=O)CCCc3nn4cccc4c(=O)[nH]3)CC2)cc1
11

State, in one line, measured IC50 of Cn1ccc2c(=O)[nH]c(CCCC(=O)N3CCC(c4cnc(N)c(-c5ncccn5)c4)CC3)nc21
1.6

State, in one line, measured IC50 of Cn1ccc2c(=O)[nH]c(CCCC(=O)N3CCC(C(=O)c4ccc(C(C)(F)F)cc4)CC3)nc21
1.1

State, in one line, measured IC50 of CCn1cc(C(=O)C2CCN(C(=O)CCCc3nc4c(C)scc4c(=O)[nH]3)CC2)cn1
1.5

State, in one line, measured IC50 of O=C(CCCc1nc2c(c(=O)[nH]1)COCC2)N1CCC(c2nnc(-c3ccccc3)o2)CC1
6.5

----------
Reported values of IC50 for individual entries
target: TNKS2 (Homo sapiens, UniProt Q9H2K2); construct: GST-tagged Tnks-2 (873-1166 aa, prepared in-house); made in house; experiment: TNKS2 activity ELISA (autoparsylation assay); type: biochemical; conditions: GST-tagged Tnks-2 (873-1166 aa); read-out: IC50 [M] TNKS2 ELISA
Sequence (Q9H2K2 873-1166): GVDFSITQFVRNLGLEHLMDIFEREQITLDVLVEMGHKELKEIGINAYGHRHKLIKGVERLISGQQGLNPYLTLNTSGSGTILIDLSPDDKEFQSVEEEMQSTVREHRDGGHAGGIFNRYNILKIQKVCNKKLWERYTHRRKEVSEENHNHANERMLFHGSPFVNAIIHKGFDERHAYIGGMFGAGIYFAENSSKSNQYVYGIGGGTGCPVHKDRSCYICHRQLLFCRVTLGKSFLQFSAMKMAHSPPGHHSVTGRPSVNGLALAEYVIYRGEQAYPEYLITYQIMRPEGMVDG
Unit M implied. Number only.

Here's what some known entries look like.
                                   molecule  recorded_value
0  CC(C)n1cc(C(=O)C2CCN(C(=O)CCCc3nc4c(cnn4C)c(=O)[nH]3)CC2)cn1         8.5e-10
1  Cn1cc(C(=O)C2CCN(C(=O)CCCc3cn4cccc4c(=O)[nH]3)CC2)cn1           3e-10
2  COc1ccc(C(=O)C2CCN(C(=O)CCCc3nc4c(ccn4C)c(=O)[nH]3)CC2)cn1         2.4e-10

Read the next record carefully.
State, in one line, measured IC50 of CC(C)(O)c1ccc(C(=O)C2CCN(C(=O)CCCc3nn4cccc4c(=O)[nH]3)CC2)cc1
3.5e-09
